# Target: Bromodomain-containing protein 1 (Homo sapiens)
# Procedure text: Inhibition of human His tagged BRPF2 incubated for 30 mins followed by addition of biotinylated peptide and further incubation for 30 mins measured by AlphaScreen assay
Outcome measure: IC50 (nM)

{"columns": ["Line notation", "Outcome measure", "Value observed"],
 "data": [
  ["Cc1cc2cc(NS(=O)(=O)c3ccc(C#N)cc3)ccc2n(C)c1=O", "IC50", 760]
]}

====

# Target: Nucleosome-remodeling factor subunit BPTF (Homo sapiens, UniProt Q12830)
# Procedure text: Inhibition of human His tagged FALZ incubated for 30 mins followed by addition of biotinylated peptide and further incubation for 30 mins measured by AlphaScreen assay
Outcome measure: IC50

{"columns": ["Line notation", "Outcome measure", "Value observed"],
 "data": [
  ["CCc1cc2cc(NS(=O)(=O)c3ccc(C#N)cc3)ccc2n(CC)c1=O", "IC50", "> 20 µM"]
]}

====

# Target: Bromodomain-containing protein 1 (Homo sapiens) (UniProt O95696)
# Sequence (whole entry): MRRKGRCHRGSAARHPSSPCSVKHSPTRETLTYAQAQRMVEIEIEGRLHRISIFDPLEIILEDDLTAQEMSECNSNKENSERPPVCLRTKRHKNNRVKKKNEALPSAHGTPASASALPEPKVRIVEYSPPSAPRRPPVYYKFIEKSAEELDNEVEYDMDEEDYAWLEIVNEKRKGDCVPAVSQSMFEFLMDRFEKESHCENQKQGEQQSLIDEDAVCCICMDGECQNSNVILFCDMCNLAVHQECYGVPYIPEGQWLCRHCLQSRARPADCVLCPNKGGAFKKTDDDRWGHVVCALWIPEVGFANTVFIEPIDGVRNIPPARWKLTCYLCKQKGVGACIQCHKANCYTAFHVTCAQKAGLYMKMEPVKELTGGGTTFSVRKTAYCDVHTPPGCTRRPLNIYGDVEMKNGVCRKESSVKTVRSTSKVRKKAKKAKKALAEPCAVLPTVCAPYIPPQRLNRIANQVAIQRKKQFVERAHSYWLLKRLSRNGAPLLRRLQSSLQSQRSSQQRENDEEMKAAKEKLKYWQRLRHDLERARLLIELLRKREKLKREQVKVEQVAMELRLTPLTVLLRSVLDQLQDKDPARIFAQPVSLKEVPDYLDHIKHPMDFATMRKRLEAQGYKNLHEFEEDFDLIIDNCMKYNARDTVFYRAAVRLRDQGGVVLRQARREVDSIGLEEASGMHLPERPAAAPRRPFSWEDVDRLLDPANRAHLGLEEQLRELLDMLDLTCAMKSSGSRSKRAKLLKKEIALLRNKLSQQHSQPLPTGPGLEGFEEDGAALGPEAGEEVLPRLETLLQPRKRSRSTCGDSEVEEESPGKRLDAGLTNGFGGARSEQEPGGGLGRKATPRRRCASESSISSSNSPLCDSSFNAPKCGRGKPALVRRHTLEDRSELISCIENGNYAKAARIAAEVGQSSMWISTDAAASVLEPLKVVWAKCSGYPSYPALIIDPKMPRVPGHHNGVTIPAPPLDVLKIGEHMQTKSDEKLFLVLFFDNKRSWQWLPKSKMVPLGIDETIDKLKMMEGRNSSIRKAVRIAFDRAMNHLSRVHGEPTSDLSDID
Outcome measure: ΔTm (°C)

{"columns": ["Line notation", "Value observed"],
 "data": [
  ["Cn1c(=O)ccc2cc(NS(=O)(=O)c3ccc(Cl)c(Cl)c3)ccc21", 2.5],
  ["Cn1c(=O)ccc2cc(NS(=O)(=O)c3cccc(C#N)c3)ccc21", 2.1],
  ["Cn1c(=O)ccc2cc(NS(=O)(=O)c3ccc(C#N)cc3F)ccc21", 1.3],
  ["CCc1cc2cc(NS(=O)(=O)c3ccc(C#N)cc3)ccc2n(C)c1=O", 3.3],
  ["CCn1c(=O)c(C)cc2cc(NS(=O)(=O)c3ccc(C#N)cc3)ccc21", 1.5],
  ["Cn1c(=O)ccc2cc(NS(=O)(=O)c3ccccc3)ccc21", 1.9],
  ["Cn1c(=O)ccc2cc(NS(=O)(=O)c3ccccc3C#N)ccc21", 0.9],
  ["Cc1cc2cc(NS(=O)(=O)c3ccc(C#N)cc3)ccc2n(C)c1=O", 5.1],
  ["Cn1c(=O)ccc2cc(NS(=O)(=O)c3ccc(C#N)cc3)ccc21", 2.4],
  ["Cc1cc(C#N)ccc1S(=O)(=O)Nc1ccc2c(ccc(=O)n2C)c1", 3.4]
]}

====

Reported ΔTm, Bromodomain-containing protein 9 (Homo sapiens) (UniProt Q9H8M2).
Outcome measure: ΔTm (°C)

{"columns": ["Line notation", "Value observed"],
 "data": [
  ["Cc1cc(C#N)ccc1S(=O)(=O)Nc1ccc2c(ccc(=O)n2C)c1", 2.2],
  ["Cn1c(=O)ccc2cc(NS(=O)(=O)c3ccc(C#N)cc3)ccc21", 2.3],
  ["Cc1cc2cc(NS(=O)(=O)c3ccc(C#N)cc3)ccc2n(C)c1=O", 3.5],
  ["Cn1c(=O)ccc2cc(NS(=O)(=O)c3ccccc3)ccc21", 3.5],
  ["Cn1c(=O)ccc2cc(NS(=O)(=O)c3cccc(C#N)c3)ccc21", 2.5],
  ["Cn1c(=O)ccc2cc(NS(=O)(=O)c3ccccc3C#N)ccc21", 2.9]
]}

====

# Procedure text: Fraction unbound in mouse plasma
# Assay type: ADME, cell-free
Outcome measure: fraction unbound

{"columns": ["Line notation", "Value observed"],
 "data": [
  ["Cc1cc2cc(NS(=O)(=O)c3ccc(C#N)cc3)ccc2n(C)c1=O", 0.03]
]}

====

# Target: Bromodomain and PHD finger-containing protein 3 (Homo sapiens, UniProt Q9ULD4)
# Sequence (Q9ULD4 whole entry): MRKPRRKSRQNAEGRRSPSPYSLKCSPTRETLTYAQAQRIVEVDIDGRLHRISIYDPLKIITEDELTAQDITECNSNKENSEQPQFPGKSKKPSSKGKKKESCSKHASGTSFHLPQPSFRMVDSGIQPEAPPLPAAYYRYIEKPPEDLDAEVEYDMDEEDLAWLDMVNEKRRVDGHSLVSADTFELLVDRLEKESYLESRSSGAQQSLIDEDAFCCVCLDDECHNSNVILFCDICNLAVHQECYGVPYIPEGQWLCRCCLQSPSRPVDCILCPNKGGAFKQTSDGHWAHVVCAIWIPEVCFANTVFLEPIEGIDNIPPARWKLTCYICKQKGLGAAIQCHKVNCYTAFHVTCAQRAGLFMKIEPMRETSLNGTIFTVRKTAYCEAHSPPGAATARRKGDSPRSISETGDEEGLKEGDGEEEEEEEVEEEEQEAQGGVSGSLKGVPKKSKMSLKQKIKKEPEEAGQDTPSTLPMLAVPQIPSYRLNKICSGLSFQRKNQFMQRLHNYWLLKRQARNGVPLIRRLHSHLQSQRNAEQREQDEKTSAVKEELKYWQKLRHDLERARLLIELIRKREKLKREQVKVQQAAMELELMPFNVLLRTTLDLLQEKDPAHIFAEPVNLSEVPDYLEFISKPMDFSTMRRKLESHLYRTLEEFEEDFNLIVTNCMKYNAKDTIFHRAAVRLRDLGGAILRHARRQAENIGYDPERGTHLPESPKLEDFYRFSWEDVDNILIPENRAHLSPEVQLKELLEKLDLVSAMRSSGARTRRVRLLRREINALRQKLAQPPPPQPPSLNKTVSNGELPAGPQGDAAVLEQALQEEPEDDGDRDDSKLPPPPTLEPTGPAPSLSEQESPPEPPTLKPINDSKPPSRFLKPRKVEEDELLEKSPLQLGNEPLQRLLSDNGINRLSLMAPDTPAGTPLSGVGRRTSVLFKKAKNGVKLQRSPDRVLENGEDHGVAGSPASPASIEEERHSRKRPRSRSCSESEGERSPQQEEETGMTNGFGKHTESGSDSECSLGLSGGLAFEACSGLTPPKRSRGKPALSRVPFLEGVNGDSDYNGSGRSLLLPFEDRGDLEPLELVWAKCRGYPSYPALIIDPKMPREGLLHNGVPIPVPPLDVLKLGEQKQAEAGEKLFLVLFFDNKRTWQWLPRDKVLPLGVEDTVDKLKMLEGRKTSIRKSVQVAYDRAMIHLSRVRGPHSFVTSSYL
# Procedure text: Inhibition of human His tagged BRPF3 incubated for 30 mins followed by addition of biotinylated peptide and further incubation for 30 mins measured by AlphaScreen assay
pIC50: −log10 of the molar value.

{"columns": ["Line notation", "pIC50"],
 "data": [
  ["Cc1cc2cc(NS(=O)(=O)c3ccc(C#N)cc3)ccc2n(C)c1=O", 5.70]
]}

====

# Target: SWI/SNF-related matrix-associated actin-dependent regulator of chromatin subfamily A member 2 (Homo sapiens, UniProt P51531)
# Sequence (P51531 whole entry): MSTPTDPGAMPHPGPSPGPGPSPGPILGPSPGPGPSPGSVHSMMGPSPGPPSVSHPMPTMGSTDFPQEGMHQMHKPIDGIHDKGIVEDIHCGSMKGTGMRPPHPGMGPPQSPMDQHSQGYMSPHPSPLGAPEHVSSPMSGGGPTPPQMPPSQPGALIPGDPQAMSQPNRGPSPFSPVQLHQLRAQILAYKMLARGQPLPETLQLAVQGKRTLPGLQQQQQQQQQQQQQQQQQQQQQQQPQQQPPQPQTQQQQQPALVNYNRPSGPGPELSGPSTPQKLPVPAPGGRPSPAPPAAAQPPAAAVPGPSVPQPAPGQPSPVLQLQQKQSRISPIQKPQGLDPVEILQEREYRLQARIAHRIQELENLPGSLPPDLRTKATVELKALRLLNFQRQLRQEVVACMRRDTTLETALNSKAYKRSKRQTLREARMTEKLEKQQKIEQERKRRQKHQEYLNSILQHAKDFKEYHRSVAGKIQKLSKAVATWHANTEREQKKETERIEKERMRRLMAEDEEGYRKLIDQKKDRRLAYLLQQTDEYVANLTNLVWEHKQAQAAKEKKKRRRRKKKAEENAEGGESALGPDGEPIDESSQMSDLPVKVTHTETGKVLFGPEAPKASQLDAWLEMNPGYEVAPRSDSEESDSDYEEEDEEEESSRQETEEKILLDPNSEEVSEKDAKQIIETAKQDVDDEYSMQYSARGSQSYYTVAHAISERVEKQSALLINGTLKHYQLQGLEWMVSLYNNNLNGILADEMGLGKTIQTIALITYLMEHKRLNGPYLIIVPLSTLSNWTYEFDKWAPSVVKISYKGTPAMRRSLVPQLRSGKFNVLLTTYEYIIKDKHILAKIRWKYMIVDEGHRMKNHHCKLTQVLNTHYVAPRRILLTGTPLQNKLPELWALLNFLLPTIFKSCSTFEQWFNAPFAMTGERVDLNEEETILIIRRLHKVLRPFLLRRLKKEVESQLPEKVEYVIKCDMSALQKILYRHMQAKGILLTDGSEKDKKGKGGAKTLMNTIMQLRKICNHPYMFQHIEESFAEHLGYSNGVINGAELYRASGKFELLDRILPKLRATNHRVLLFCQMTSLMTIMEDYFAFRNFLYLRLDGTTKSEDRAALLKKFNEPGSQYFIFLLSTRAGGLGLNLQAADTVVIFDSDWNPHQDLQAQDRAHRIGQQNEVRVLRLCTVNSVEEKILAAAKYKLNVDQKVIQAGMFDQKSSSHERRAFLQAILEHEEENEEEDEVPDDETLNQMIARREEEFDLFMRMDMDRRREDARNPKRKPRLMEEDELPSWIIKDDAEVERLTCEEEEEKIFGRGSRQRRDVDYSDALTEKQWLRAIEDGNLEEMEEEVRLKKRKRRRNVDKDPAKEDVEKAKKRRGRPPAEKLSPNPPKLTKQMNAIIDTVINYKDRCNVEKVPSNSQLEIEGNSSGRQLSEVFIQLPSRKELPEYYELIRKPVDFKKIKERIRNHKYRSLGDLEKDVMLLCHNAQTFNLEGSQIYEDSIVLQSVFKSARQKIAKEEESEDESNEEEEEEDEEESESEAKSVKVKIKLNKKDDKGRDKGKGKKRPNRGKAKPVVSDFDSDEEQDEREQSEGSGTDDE
# Procedure text: Inhibition of human SMARCA2A expressed in Escherichia coli BL21 after 1 hr by BROMOscan assay

{"columns": ["Line notation", "Result units", "IC50"],
 "data": [
  ["CCc1cc2cc(NS(=O)(=O)c3ccc(C#N)cc3)ccc2n(CC)c1=O", "µM", 77]
]}

====

Reported ΔTm, Bromodomain-containing protein 4 (Homo sapiens, UniProt O60885).

{"columns": ["Line notation", "ΔTm (°C)"],
 "data": [
  ["Cn1c(=O)ccc2cc(NS(=O)(=O)c3ccccc3)ccc21", 1.1],
  ["Cn1c(=O)ccc2cc(NS(=O)(=O)c3ccc(C#N)cc3)ccc21", 1.4],
  ["Cc1cc2cc(NS(=O)(=O)c3ccc(C#N)cc3)ccc2n(C)c1=O", 0.95],
  ["Cn1c(=O)ccc2cc(NS(=O)(=O)c3cccc(C#N)c3)ccc21", 1.1],
  ["Cc1cc(C#N)ccc1S(=O)(=O)Nc1ccc2c(ccc(=O)n2C)c1", 0.4],
  ["Cn1c(=O)ccc2cc(NS(=O)(=O)c3ccccc3C#N)ccc21", 1.3]
]}
